The reader will find reported ncRNA array expression, patient 19 values listed item by item below.
Tested on: ncRNAs (SEQ ID NO 28-89)
assay-explanation: ncRNA arrays of melanocytes, keratinocytes, normal skin, melanoma cell lines and patient samples
Design: species or system human
experimental-parameters: melanoma patient 19 sample compared to normal skin

# substance, system-under-test, ncRNA array expression, patient 19
rows = [
    ("SEQ ID NO 67 (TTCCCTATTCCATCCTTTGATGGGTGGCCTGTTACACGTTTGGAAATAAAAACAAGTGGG; listed as DNA, chemistry not given here; listed as Homo sapiens)", "ncRNAs (SEQ ID NO 28-89)", 0.7069),
    ("SEQ ID NO 63 (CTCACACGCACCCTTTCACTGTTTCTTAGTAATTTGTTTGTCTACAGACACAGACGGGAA; listed as DNA, chemistry not given here; listed as Homo sapiens)", "ncRNAs (SEQ ID NO 28-89)", "−1.154"),
    ("SEQ ID NO 60 (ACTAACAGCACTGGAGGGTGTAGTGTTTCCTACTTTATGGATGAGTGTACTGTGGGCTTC; listed as DNA, chemistry not given here; listed as Homo sapiens)", "ncRNAs (SEQ ID NO 28-89)", 0.3888),
    ("SEQ ID NO 56 (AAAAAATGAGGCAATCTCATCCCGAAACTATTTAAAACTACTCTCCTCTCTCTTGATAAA; listed as DNA, chemistry not given here; listed as Homo sapiens)", "ncRNAs (SEQ ID NO 28-89)", "−1.228"),
    ("SEQ ID NO 47 (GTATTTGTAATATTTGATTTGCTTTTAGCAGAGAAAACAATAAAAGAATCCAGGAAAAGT; listed as DNA, chemistry not given here; listed as Homo sapiens)", "ncRNAs (SEQ ID NO 28-89)", "−2.485"),
]

---

System: ncRNAs (SEQ ID NO 28-89)
assay-explanation: ncRNA arrays of melanocytes, keratinocytes, normal skin, melanoma cell lines and patient samples
Set-up: species or system human
experimental-parameters: melanoma patient 20 sample compared to normal skin
Measured ncRNA array expression, patient 20 accompanies every entry in the list below.
measured-attribute: ncRNA array expression, patient 20

# substance, reading
rows = [
    ("SEQ ID NO 74 (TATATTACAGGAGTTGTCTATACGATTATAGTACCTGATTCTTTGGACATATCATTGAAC; listed as DNA, chemistry not given here; listed as Homo sapiens)", 0.8773),
    ("SEQ ID NO 79 (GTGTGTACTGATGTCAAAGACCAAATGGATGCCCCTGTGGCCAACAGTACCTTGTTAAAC; listed as DNA, chemistry not given here; listed as Homo sapiens)", 1.494),
    ("SEQ ID NO 60 (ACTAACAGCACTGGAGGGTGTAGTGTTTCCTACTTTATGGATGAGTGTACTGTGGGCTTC; listed as DNA, chemistry not given here; listed as Homo sapiens)", 2.119),
    ("SEQ ID NO 81 (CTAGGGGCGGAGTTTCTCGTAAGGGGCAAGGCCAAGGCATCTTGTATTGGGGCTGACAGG; listed as DNA, chemistry not given here; listed as Homo sapiens)", "−2.527"),
    ("SEQ ID NO 49 (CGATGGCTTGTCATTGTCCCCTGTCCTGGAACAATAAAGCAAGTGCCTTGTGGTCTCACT; listed as DNA, chemistry not given here; listed as Homo sapiens)", "−2.123"),
    ("SEQ ID NO 70 (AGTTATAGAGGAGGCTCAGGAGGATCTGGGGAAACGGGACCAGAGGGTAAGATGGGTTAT; listed as DNA, chemistry not given here; listed as Homo sapiens)", "−1.615"),
    ("SEQ ID NO 37 (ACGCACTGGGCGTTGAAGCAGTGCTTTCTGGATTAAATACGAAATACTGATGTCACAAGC; DNA, backbone and methylation of C not given here; listed as Homo sapiens)", 0.9938),
    ("SEQ ID NO 82 (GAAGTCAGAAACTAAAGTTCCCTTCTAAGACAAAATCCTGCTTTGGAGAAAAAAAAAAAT; listed as DNA, chemistry not given here; listed as Homo sapiens)", "−3.111"),
    ("SEQ ID NO 75 (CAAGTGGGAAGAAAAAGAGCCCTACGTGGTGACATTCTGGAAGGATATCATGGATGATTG; listed as DNA, chemistry not given here; listed as Homo sapiens)", 2.945),
    ("SEQ ID NO 64 (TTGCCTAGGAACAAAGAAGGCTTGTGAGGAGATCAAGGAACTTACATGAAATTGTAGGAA; listed as DNA, chemistry not given here; listed as Homo sapiens)", 2.311),
    ("SEQ ID NO 61 (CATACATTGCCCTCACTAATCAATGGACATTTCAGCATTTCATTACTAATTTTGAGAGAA; listed as DNA, chemistry not given here; listed as Homo sapiens)", "−0.03568"),
    ("SEQ ID NO 87 (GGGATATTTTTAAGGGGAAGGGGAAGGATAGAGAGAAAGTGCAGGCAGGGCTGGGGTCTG; listed as DNA, chemistry not given here; listed as Homo sapiens)", "−1.935"),
    ("SEQ ID NO 32 (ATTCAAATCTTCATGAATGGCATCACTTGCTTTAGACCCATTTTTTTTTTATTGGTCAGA; DNA, backbone and methylation of C not given here; listed as Homo sapiens)", 3.196),
    ("SEQ ID NO 55 (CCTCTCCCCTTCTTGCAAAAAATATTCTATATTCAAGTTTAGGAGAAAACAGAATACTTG; listed as DNA, chemistry not given here; listed as Homo sapiens)", "−1.812"),
    ("SEQ ID NO 41 (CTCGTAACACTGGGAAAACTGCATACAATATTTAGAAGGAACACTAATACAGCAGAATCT; listed as DNA, chemistry not given here; listed as Homo sapiens)", "−2.545"),
    ("SEQ ID NO 69 (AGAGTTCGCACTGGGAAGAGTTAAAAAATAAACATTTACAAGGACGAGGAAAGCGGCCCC; listed as DNA, chemistry not given here; listed as Homo sapiens)", "−1.422"),
    ("SEQ ID NO 30 (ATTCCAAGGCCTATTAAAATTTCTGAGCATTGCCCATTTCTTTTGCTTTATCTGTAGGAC; DNA, backbone and methylation of C not given here; listed as Homo sapiens)", 1.367),
    ("SEQ ID NO 72 (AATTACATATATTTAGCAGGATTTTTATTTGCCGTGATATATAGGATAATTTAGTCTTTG; listed as DNA, chemistry not given here; listed as Homo sapiens)", 1.011),
]
